Reference for the values: ChEMBL document CHEMBL3994633

# test-method-notes: Protein binding in human plasma
# Format: ADME, cell-free
# assay-setup: read-out: PPB
reported-metric: fraction unbound

Here is how some molecules turned out for fraction unbound.
# structure-as-smiles, reported-metric, recorded-result
rows = [
    ("Cc1cc(C)cc(COc2ccc(CCC(=O)O)cc2C)c1", "fraction unbound", "< 0.01"),
    ("Cc1cccc(COc2ccc(CCC(=O)O)cc2C)c1", "fraction unbound", "< 0.01"),
    ("Cc1cc(COc2ccc(CCC(=O)O)cc2C)cc(OC(C)C)c1", "fraction unbound", "< 0.01"),
    ("Cc1ccc(Cl)c(COc2ccc(CCC(=O)O)cc2C)c1", "fraction unbound", "< 0.01"),
]

Qu. Item `COc1ccc(C(F)(F)F)cc1COc1ccc(CCC(=O)O)cc1C` has what recorded fraction unbound?
Ans. 0.001
